Just for reference, patent US20110165066A1 is where these values come from.

# target-or-test-system: T1, human IL-13 wild type (human, UniProt P35225 35-146)
# T1 construct: also called h IL-13; h IL-13 wt
# T1 sequence (P35225 other isoform, or with tags, fused parts or gaps limits assumed): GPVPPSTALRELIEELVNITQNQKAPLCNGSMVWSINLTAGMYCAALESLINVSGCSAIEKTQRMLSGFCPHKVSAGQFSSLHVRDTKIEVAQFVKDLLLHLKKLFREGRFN
# protocol-notes: SPR (Biacore), mAb captured, IL-13 as analyte
pKd: −log10 of the molar value.
result-type: pKd

>>> assay_result("3E5 (antibody, V domains shown) VH: QVQLKESGPGLVAPSQSLSITCTVSGFSLTGSSINWVRQPPGKGLEWLGMIWGDGRIDYNSVLKSRLSISKDSSKSQVFLKMNSLQADDTARYYCARDGYYPYAMVYWGQGTSVTVSS VL: NIVLTQSPASLAVSLGQRATIFCRASESVDSYGNSFMHWYQQKSGQPPKLLIYLASNLESGVPARFSGSGSRTDFTLTIDPVEADDAATFYCQQNNENPRTFGGGTKLEIKR")
9.34
